# assayed-target: Adrenergic receptor alpha-2 (Rattus norvegicus, UniProt P22086+P19328+P22909)
# Sequence (P22086 whole entry): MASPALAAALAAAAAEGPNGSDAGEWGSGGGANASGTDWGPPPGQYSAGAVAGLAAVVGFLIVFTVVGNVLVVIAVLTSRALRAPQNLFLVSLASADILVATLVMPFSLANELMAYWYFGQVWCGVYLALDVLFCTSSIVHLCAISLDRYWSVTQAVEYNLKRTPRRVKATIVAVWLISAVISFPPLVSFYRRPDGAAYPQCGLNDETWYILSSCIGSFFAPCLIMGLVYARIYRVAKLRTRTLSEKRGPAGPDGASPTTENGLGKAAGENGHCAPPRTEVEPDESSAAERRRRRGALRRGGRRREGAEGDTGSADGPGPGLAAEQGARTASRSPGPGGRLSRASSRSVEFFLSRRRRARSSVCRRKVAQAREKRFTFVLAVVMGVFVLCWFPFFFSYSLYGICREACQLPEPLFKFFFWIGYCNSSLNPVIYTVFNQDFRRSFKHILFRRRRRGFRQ
# Sequence (P19328 whole entry): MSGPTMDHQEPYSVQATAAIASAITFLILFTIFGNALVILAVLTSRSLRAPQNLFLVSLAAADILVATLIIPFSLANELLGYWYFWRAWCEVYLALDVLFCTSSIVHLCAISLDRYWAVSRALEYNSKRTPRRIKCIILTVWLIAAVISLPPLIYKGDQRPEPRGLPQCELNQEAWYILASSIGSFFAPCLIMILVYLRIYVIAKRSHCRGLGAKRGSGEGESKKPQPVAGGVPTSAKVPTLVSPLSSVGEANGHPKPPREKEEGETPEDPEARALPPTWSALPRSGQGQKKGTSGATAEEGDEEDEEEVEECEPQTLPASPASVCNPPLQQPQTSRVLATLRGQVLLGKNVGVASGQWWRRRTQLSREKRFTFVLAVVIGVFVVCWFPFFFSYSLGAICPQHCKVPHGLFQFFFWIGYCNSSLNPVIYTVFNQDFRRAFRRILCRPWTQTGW
# Sequence (P22909 whole entry): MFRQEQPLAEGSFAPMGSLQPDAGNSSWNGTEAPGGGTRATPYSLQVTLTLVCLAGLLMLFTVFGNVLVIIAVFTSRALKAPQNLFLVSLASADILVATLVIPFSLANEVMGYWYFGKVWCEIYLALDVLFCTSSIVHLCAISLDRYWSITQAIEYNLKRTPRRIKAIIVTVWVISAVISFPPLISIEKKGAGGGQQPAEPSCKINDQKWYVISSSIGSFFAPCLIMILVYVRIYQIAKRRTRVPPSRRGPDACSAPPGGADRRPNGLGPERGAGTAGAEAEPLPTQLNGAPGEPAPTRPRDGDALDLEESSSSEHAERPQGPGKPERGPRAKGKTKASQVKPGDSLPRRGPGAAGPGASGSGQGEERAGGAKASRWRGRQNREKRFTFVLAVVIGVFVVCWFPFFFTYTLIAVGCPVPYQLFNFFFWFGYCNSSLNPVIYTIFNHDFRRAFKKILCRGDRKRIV
# protocol-text: Presynaptic antagonistic activity against alpha-2 adrenergic receptor from rat, isolated, field-stimulated vas deferens, using clonidine as the agonist
# Assay type: functional
metric-name: pA2
// no unit, no text: just the number

Below: 5 compounds and their reported pA2.
CN1CCN(c2ncccc2F)CC1 ... 7.4
N#Cc1cccnc1N1CCNCC1 ... 6.1
Brc1cccnc1N1CCNCC1 ... 6.6
Clc1cccnc1N1CCN(Cc2ccccc2)CC1 ... 6.5
O=[N+]([O-])c1cccnc1N1CCNCC1 ... 6.3

Request: pA2, test system Adrenergic receptor alpha-2 (Rattus norvegicus, UniProt P22086+P19328+P22909), entry `Clc1ccccc1N1CCNCC1`
6

Request: pA2, test system Adrenergic receptor alpha-2 (Rattus norvegicus, UniProt P22086+P19328+P22909), entry `Cc1ccnc(N2CCNCC2)c1Cl`
5.9

Request: pA2, test system Adrenergic receptor alpha-2 (Rattus norvegicus, UniProt P22086+P19328+P22909), entry `CN1CCN(c2ncccc2Br)CC1`
7.6

Request: pA2, test system Adrenergic receptor alpha-2 (Rattus norvegicus, UniProt P22086+P19328+P22909), entry `c1ccc(N2CCNCC2)nc1`
6.4

Request: pA2, test system Adrenergic receptor alpha-2 (Rattus norvegicus, UniProt P22086+P19328+P22909), entry `Clc1cccc(N2CCNCC2)n1`
6.8

Request: pA2, test system Adrenergic receptor alpha-2 (Rattus norvegicus, UniProt P22086+P19328+P22909), entry `CN1CCN(c2ncccc2Cl)CC1`
7.4

Request: pA2, test system Adrenergic receptor alpha-2 (Rattus norvegicus, UniProt P22086+P19328+P22909), entry `Ic1cccnc1N1CCNCC1`
6.2

Request: pA2, test system Adrenergic receptor alpha-2 (Rattus norvegicus, UniProt P22086+P19328+P22909), entry `Clc1cccnc1N1CCNCC1`
6.9

Request: pA2, test system Adrenergic receptor alpha-2 (Rattus norvegicus, UniProt P22086+P19328+P22909), entry `Fc1cccnc1N1CCNCC1`
6.9
